Tested on: NCI-H522 lung
Assay: NCI tumour cell line growth inhibition, 48 h; in the data active means GI50 below about 0.43 µM; inactive means the rest
Pick one and only one: 1 = active, -1 = inactive

Assay result, entry COc1ccc(C2=NN(C(=O)c3cc(OC)c(OC)c(OC)c3)C(c3ccc(N(C)C)cc3)C2)cc1 (stereo not given) — outcome?
1

Dear all, I need the recorded test outcome for COc1cc(C(=O)Nc2cc(OC)c3ccn(C)c3c2)cc2c1C[C@]1(C)CC[C@@H](O)C(C)(C)[C@H]1O2 , thank you.
-1

GET /call?item= Cn1c(NCC(O)CN2CCCC2)cc(=O)n(C)c1=O (stereo not given) returns the recorded outcome of this test.
-1

Which outcome was assigned to COc1cc([C@@H]2C[C@H]2c2cc(SC)n[nH]2)cc(OC)c1OC in this test?
-1

Assay result, entry COc1ccc(/C=C2\C=C(c3ccccc3)N(CCc3ccccc3)C2=O)cc1OC — outcome?
-1

----------
Test system: HS 578T breast
Assay: NCI tumour cell line growth inhibition, 48 h
// values below are reported TGI

Worked set:
[[record]]
molecule = "Cc1ccc2c(c1)S(=O)(=O)c1ccc3ccccc3c1N2"
property_label = "TGI"
obs_value = "> 100 µM"

[[record]]
molecule = "COc1ccc(Nc2cc(C)nc(NCCCNc3ccnc4cc(Cl)ccc34)n2)cc1"
property_label = "TGI"
obs_value = "4.39 µM"


The molecule COc1ccc(C2C(C)C(=O)C(C)C(c3ccc(OC)cc3)N2N=O)cc1 (stereo not given) showed TGI equal to 890 µM

Looking up COc1cc(-c2c(C#N)c(N)nc(N3CCOCC3)c2C#N)cc(OC)c1OC , I found its TGI recorded as > 100 µM

Data point: COC(=O)[C@H](CC(C)C)Nc1c(O)c2c(c(O)c1Cl)C(=O)C=CC2=O ; TGI = > 10 µM

----------
System: LOX IMVI melanoma
Assay: NCI tumour cell line growth inhibition, 48 h
Property Label: TGI

Consider the reported TGI for these molecules:
[[record]]
molecule = "c1ccc2c(c1)NC1(N3CCCCC3)CCCCC21 (stereo not given)"
obs_value = "> 100 µM"

[[record]]
molecule = "Cc1cc(S(=O)(=O)/N=C(/[N-]S(=O)(=O)c2ccc(Cl)cc2)[n+]2ccc(N(C)C)cc2)c(SCC(=O)O)cc1Cl"
obs_value = "> 100 µM"

[[record]]
molecule = "COc1ccc2nc3ccc(OC)cc3c(SCc3ccccc3)c2c1"
obs_value = "> 100 µM"

[[record]]
molecule = "Cn1c(/C=C/[N+](=O)[O-])cc2ccccc21"
obs_value = "3.44 µM"


Switching to the query record.
Noted for NCC1OC(OC2C(CO)OC(OC3C(O)C(N)CC(N)C3OC3OC(CO)C(O)CC3N)C2O)C(N)C(O)C1OC1OC(CO)C(O)C(O)C1O (stereo not given) : its TGI reads > 50 µg/mL

----------
System: A498 renal
Test: NCI tumour cell line growth inhibition, 48 h; in the data active means GI50 below about 0.43 µM; inactive means the rest
Your reply should match one of these outcome classes. active, inactive

# count of solved cases: 6
[[record]]
compound = "CCCCCCCCn1ccc2cc(NC(=O)Cn3cc(CN4CCCCC4)nn3)ccc21"
class_assignment = "inactive"

[[record]]
compound = "O=C1OCC2=C1C(c1ccc(Cl)c(Cl)c1)c1cc3c(cc1N2CCO)CCC3 (configuration not stated)"
class_assignment = "active"

[[record]]
compound = "COc1cc(-c2cc(-c3cc(OC)c(OC)c(OC)c3)nc3nc(N)[nH]c(=O)c23)ccc1Oc1ccnc2cc(Cl)ccc12"
class_assignment = "inactive"

[[record]]
compound = "Cn1c(=O)c(Oc2ccc(F)cc2F)cc2cnc(NC3CCS(=O)(=O)CC3)nc21"
class_assignment = "inactive"

[[record]]
compound = "COc1cc(C(=O)N/N=C/c2ccc(N(C)C)cc2)cc(OC)c1OC"
class_assignment = "active"

[[record]]
compound = "COc1ccc(C2=NN(C(=O)c3cc(OC)c(OC)c(OC)c3)C(c3ccc(N(C)C)cc3)C2)cc1 (configuration not stated)"
class_assignment = "active"


Hi team, can someone confirm the assay call for CCN1Cc2nc3sc(C)c(C)c3c(=O)n2C=C1C ?
inactive

Value source: PubChem BioAssay (NCI)
